measurementTarget: UniProtKB P22460
Sequence (P22460 whole entry): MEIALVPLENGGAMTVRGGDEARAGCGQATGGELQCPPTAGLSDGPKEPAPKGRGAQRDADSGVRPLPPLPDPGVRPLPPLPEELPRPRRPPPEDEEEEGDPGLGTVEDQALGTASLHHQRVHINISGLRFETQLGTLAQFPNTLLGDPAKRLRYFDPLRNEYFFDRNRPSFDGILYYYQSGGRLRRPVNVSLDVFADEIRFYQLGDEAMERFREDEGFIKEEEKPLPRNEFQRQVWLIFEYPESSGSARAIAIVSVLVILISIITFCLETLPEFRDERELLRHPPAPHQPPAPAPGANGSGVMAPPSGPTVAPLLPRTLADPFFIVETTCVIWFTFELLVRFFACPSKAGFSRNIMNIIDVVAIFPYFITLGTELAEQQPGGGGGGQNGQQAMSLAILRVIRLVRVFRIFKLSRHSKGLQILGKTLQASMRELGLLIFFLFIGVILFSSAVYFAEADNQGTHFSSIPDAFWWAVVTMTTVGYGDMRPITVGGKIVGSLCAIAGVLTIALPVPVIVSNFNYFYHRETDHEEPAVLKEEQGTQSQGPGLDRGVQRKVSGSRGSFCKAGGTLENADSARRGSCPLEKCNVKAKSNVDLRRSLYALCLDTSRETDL
experimentNotes: Kv1.5 Patch Clamp EP (whole cell patch clamp; single point at 1 μM and IC50)
appliedConditions: concentration response

| compound | measurementTarget | IC50 [nM] |
| --- | --- | --- |
| COc1ccc(CCN2C(=O)C3(CCN(C(=O)NC4CCCC4)CC3)N(C)C2c2ccc(C3CC3)cc2)cc1 (stereo not shown) | UniProtKB P22460 | 186 |
| COc1ccc(CCN2C(=O)C3(CCN(C(=O)OC(C)(C)C)CC3)NC2Cc2ccc(C(C)(C)C)cc2)cc1 (stereo not shown) | UniProtKB P22460 | 393 |
| CN1C(c2ccc(C3CC3)cc2)N(CCCc2ccccc2)C(=O)C12CCN(S(C)(=O)=O)CC2 (stereo not shown) | UniProtKB P22460 | 266 |
| COc1ccc(CCN2C(=O)C3(CCN(C(N)=NC#N)CC3)N(C)C2c2ccc(OC)cc2)cc1 (stereo not shown) | UniProtKB P22460 | 166 |
| CN1C(c2ccc(C3CC3)cc2)N(CCCc2ccccc2)C(=O)C12CCN(C(N)=O)CC2 (stereo not shown) | UniProtKB P22460 | 321 |
| CN1C(c2ccc(C3CC3)cc2)N(CCCc2ccccc2)C(=O)C12CCN(C(=O)C1CC1)CC2 (stereo not shown) | UniProtKB P22460 | 287 |
| COc1ccc(CCN2C(=O)C3(CCN(C(N)=O)CC3)N(C)C2c2ccc(C3CC3)cc2)cc1 (stereo not shown) | UniProtKB P22460 | 579 |

The measurements presented in this section are drawn from patent US20070299072A1.
